Tested on: MOLT-4
procedure summary: NCI tumour cell line growth inhibition, 48 h
The source made the active and inactive calls. Cut-off read from the data, not from the text of the source: active = GI50 up to about 1.1 µM and inactive = higher.
Form entry, call: pick from active, inactive

| compound | cat |
| --- | --- |
| C/C=C/c1cc2c(cc1O)CC[C@@H]1[C@@H]2CC[C@]2(C)[C@@H](O)CC[C@@H]12 | active |
| COc1cc(-c2nnc3n2NC=C(C(=O)O)S3)cc(OC)c1OC | inactive |
| COC1C(C)OC(OC2CC(C)(O)Cc3cc4c(c(O)c32)C(=O)c2c(O)cc3c(c2C4=O)OC2OC3(C)C(O)C(N(C)C)C2O)C(OC)C1(C)OC (stereo not drawn) | active |

Call for entry O=C1CNc2cc(N3CCN(c4ccccc4)CC3)ccc2N1 :
inactive

Now try O=C1CCN(CCC(F)(F)C(F)(F)C(F)(F)C(F)(F)C(F)(F)C(F)(F)F)C(=S)N1CCC(F)(F)C(F)(F)C(F)(F)C(F)(F)C(F)(F)C(F)(F)F .
inactive

Now try Nc1nccc2c1ncn2[C@H]1C[C@H](O)[C@@H](CO)O1 .
inactive

Now try CC1=CC(=O)C[C@]2(C)[C@@H](O)CC(C(C)CO)C[C@@H]12 (stereo partly drawn) .
inactive

Now try COc1ccccc1N1C(=O)/C(=C\c2cccc(Oc3ccccc3)c2)S(=O)(=O)C1c1ccccc1 (stereo not drawn) .
inactive

---

System: PC-3
procedure summary: NCI tumour cell line growth inhibition, 48 h
Activity calls are given as the source filed them. Rule as the data show it: active = GI50 up to about 1.1 µM and inactive = higher.
Form entry, call: pick from active, inactive

Previously resolved entries follow.
| compound | cat |
| --- | --- |
| NC(=S)NS(=O)(=O)c1ccc(Cl)cc1Cl | inactive |
| CC(=O)n1nc(-c2[nH]c(C)c(-c3nn(C(C)=O)c(=S)o3)c2C)oc1=S | inactive |
| CCOC(=O)c1sc2c(c1OC(=O)c1ccco1)c(=O)n(-c1ccccc1)c(=S)n2-c1ccccc1 | inactive |

Call for entry Cc1c(O)c(OC2OC(CO)C(O)C(O)C2O)cc2c1C=C[C@@H]1[C@@]2(C)C(=O)C[C@]2(C)[C@@H]([C@@](C)(O)C(=O)CCC(C)(C)O)[C@H](O)C[C@@]12C (stereo partly drawn) :
inactive

Now try O=C1C(Cl)=C(Nc2ccc(OC(F)(F)F)cc2)C(=O)c2c(O)ccc(O)c21 .
active

Now try C=C(C)/C=C/C(O)[C@](C)(O)[C@H]1[C@H](O)C[C@@]2(C)[C@@H]3CCc4c(cc(OC5OC(CO)C(O)C(O)C5O)c(O)c4C)C3(C)C(=O)C[C@]12C (stereo partly drawn) .
inactive

Now try Cc1ccc(C2(O)CS/C(=N\C34CC5CC(CC(C5)C3)C4)N2C(P(=O)(O)O)P(=O)(O)O)cc1 (stereo not drawn) .
inactive

Now try COC(=O)C1C(C(=O)OC)C1(Br)CBr (stereo not drawn) .
inactive

---

System: OVCAR-8
procedure summary: NCI tumour cell line growth inhibition, 48 h
Activity calls are given as the source filed them. No stated cut-off is given here; in the data, active = GI50 up to about 1.1 µM and inactive = higher.
measured quantity: GI50

Some solved cases for reference:
| molecule | GI50 |
| --- | --- |
| Cc1ccc(C2(O)CS/C(=N\C34CC5CC(CC(C5)C3)C4)N2C(P(=O)(O)O)P(=O)(O)O)cc1 (configuration not stated) | 86.7 µM (inactive) |
| CC1(C)OCC(C(O)C2OC(C)(C)OC2C=O)O1 (configuration not stated) | > 100 µM (inactive) |
| CS(=O)(=O)N(CCC#N)c1ccc(C=O)cc1 | > 100 µM (inactive) |
| O=[N+]([O-])c1cc(Cl)ccc1Sc1ccccc1 | > 100 µM (inactive) |
| CC1=NN(c2cccc(Cl)c2)C(=N/c2nc3ccccc3s2)/C1=C\c1ccccc1O | 27.4 µM (inactive) |

Can you share its GI50? I mean this molecule: Nc1c(C(=O)NC23CC4CC(CC(C4)C2)C3)[n+]([O-])c2ccccc2[n+]1[O-]
> 100 µM (inactive)

Now try COc1ccc(C(CC(=O)c2cccs2)C(=O)c2ccc3c(c2)OCO3)cc1 (configuration not stated) .
> 100 µM (inactive)
